- test_method_notes: AUClast in Sprague-Dawley rat at 2 mg/kg, iv and 3 mg/kg, po
- Format: ADME, organism-based
- study_conditions: plasma
measured_quantity: AUC(0-t) (ng·h/mL)
// return numeric value only (unit: ng·h/mL, not printed)

Query: Look up AUC(0-t) for this molecule: `CC(C)(CO)NC(=O)c1nn(-c2ccc(F)cc2F)c2c1C[C@H]1C[C@@H]21`
Reply: 4480
